target: AChE (from human erythrocytes, amphiphilic form, EC 3.1.1.7) (Homo sapiens, UniProt P22303); test: biochemical; details: AChE from human erythrocytes; Ellman's method; Table I; read-out: IC50(AChE)
Sequence (P22303 32-617 isoform P22303-2 limits assumed): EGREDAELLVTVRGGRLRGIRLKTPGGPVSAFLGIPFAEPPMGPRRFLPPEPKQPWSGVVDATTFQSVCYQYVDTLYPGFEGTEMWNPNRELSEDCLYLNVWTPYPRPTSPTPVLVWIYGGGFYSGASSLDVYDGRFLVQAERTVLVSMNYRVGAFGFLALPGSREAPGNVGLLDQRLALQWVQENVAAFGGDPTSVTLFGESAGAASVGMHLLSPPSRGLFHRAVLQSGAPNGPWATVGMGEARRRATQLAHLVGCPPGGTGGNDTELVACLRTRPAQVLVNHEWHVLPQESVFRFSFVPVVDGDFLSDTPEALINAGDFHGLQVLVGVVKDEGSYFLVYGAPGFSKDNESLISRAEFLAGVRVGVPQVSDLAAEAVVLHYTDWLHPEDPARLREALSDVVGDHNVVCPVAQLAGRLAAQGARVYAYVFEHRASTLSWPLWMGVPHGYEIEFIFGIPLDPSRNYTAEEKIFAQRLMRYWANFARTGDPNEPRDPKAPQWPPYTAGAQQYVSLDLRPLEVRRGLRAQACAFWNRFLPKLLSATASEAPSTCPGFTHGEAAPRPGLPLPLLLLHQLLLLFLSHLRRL
Entries and their pIC50 values follow.
Just the number, please; pIC50 means minus log10 of the concentration in mol/L.

CCN(CCCNC1=CC(=O)C(NCCCN(CC)Cc2ccccc2OC)=CC1=O)Cc1ccccc1OC [XII]; 8.50

Could you now look at the following compound, please?
// query Look up pIC50 for this compound: CCN(CCCCCCNC1=CC(=O)C(NCCCCCCN(CC)Cc2ccccc2OC)=CC1=O)Cc1ccccc1OC [Compound XVI]
// result 8.62
